Test system: H9c2;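 note: cell death induced by hydrogen peroxide oxidative stress; compound pretreatment for 60 min then peroxide exposure for 2 h; potency is for protecting the cells against peroxide damage rather than for killing them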;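 note: confirmatory concentration-response retest of ultra-high-throughput screening hits for modulation of myocardial damage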
Assay text: cells
Format: functional, cell-based
Reported conditions: Rattus norvegicus, H9c2, Myocardium
Active and inactive are the calls of the source.
Examples of compounds with documented IC50 follow.

Below: 4 compounds and their reported IC50.
Compound	IC50
O=C(CN1CCCCC1)Nc1nc(-c2ccc(F)c(F)c2)cs1	> 79 µM (inactive)
CCOC(=O)C(Cc1ccc(NC(=O)/C(=C/c2ccc(OC(C)=O)cc2)NC(C)=O)cc1)N1C(=O)c2ccccc2C1=O (stereo not given)	> 79 µM (inactive)
O=C(C[C@H]1C/C=C\CC[C@H](Cc2ccc(F)cc2)C(=O)O[C@@H](c2ccccc2)CNC1=O)N[C@H](CO)Cc1ccccc1	> 79 µM (inactive)
Cc1ccc(S(=O)(=O)N2CCN(C(=O)CCc3nc(O)c4ccccc4n3)CC2)c(C)c1	> 79 µM (inactive)

// switching to the query compound
query: I would be grateful if you could share the reported IC50 for Cc1ccc(NC(=O)CSC(C)C(=O)OCc2cc(=O)oc3cc(O)ccc23)cc1 (stereo not given) .
result: > 79 µM (inactive)

---

Test system: UniProt:P31941
Sequence (P31941 whole entry): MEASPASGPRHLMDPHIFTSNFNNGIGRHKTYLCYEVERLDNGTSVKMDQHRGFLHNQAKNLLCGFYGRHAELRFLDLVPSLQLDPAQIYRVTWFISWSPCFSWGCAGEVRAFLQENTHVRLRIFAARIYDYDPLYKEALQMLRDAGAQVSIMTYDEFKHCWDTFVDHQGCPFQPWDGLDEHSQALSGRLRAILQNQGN
Assay text: Dose Response confirmation of small molecule APOBEC3A DNA Deaminase Inhibitors via a fluorescence-based single-stranded DNA deaminase assay. [Related pubchem assays (depositor defined):AID493011, AID493024]
Format: functional
The source made the active and inactive calls.
Examples of compounds with documented IC50 follow.

Below: 3 compounds and their reported IC50.
Compound string	IC50
CN(C)S(=O)(=O)c1ccc(C(=O)NCC[N+]2(C)CCCCCC2)o1	1.89 µM (active)
O=C(NCc1ccc2c(c1)OCO2)c1cc(-n2cnnc2)ccc1Cl	1.64 µM (active)
C[N+]1(CCCOC(=O)C2(c3ccccc3)CCCC2)CCOCC1	1.61 µM (active)

query: I would be grateful if you could share the reported IC50 for "CC1CCN(C(=O)c2ncn(C)c2C(=O)N2CCC(C)CC2)CC1" .
result: 2.34 µM (active)

---

Test system: Paired box protein Pax-8 (Homo sapiens, UniProt Q06710)
Sequence (Q06710 whole entry): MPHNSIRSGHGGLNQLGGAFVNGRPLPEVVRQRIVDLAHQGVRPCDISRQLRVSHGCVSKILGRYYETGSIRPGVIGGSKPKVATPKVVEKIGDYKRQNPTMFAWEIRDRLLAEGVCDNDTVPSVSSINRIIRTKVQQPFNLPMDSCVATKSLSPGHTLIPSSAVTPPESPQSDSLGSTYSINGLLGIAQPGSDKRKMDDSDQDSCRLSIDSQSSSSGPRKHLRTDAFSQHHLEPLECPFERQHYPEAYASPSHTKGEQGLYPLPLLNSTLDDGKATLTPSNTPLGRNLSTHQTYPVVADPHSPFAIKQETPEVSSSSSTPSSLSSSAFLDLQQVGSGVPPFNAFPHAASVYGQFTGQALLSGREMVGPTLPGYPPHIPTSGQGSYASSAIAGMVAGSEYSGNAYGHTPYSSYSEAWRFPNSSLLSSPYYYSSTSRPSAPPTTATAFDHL
Assay text: PAX8 transcriptional activity inhibition in RMG-I – RMG-I cells, luciferase, cherry-pick, dose response (AID 687027);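 note: luciferase reporter driven by Pax8 target thyroperoxidase promoter measured by SteadyGlo luminescence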
Assay type: functional, cell-based
Calls of active or inactive are those of the source.
Outcome measure: AC50

Below: 4 molecules and their reported AC50.
Compound string	AC50
COc1ccc(-c2cc(CNc3nc(NC(C)C)nc4cc(-c5ccccc5)sc34)on2)cc1	9.84 µM (active)
C[C@H](CO)N1C[C@H](C)[C@H](CN(C)C(=O)NC2CCCCC2)OCCCC[C@H](C)Oc2ccc(NC(=O)Nc3ccc(C(F)(F)F)cc3)cc2C1=O	6.15 µM (active)
C[C@H]1CN([C@@H](C)CO)S(=O)(=O)c2ccc(C#Cc3ccncc3)cc2O[C@@H]1CN(C)C(=O)Nc1ccc2c(c1)OCO2	0.264 µM (active)
C[C@@H]1CCCCO[C@H](CN(C)S(=O)(=O)c2ccc(Cl)cc2)[C@@H](C)CN([C@@H](C)CO)C(=O)c2cc(NC(=O)CCC(F)(F)F)ccc2O1	3.2 µM (active)

query: I would be grateful if you could share the reported AC50 for "C[C@@H]1CN([C@@H](C)CO)S(=O)(=O)c2ccc(C#Cc3ccccc3F)cc2O[C@H]1CN(C)CC1CCOCC1" .
result: 10.3 µM (active)
